Field: Plant response rating, Bedstraw. Provide a value for each of the molecules that follow.
System: bedstraw (Galium aparine)
Assay: Test B pre-/postemergence
Format: in vivo
Conditions: Rate 250 g/ha, Postemergence
Method: […] At the same time, these crop and weed species were also treated with postemergence applications of test chemicals formulated in the same manner. […] Treated plants and controls were maintained in a greenhouse for twelve to sixteen days, after which all species were compared to controls and visually evaluated. […]

molecule	measured-endpoint	recorded-result
Cc1cnc(-n2ccc(C(F)(F)F)n2)nc1C(=O)c1cccc(OC(F)(F)F)c1	Plant response rating, Bedstraw	6
Cc1cnc(-c2ccc(C(F)(F)F)cc2)nc1Cn1ccc(C#N)n1	Plant response rating, Bedstraw	10
Cc1cnc(-c2ccc(C(F)(F)F)cc2)nc1C(C)c1cccc(C(F)(F)F)c1 (racemic)	Plant response rating, Bedstraw	3
Cc1cnc(-n2cnc(C(F)(F)F)c2)nc1Cc1cccc(C(F)(F)F)c1	Plant response rating, Bedstraw	9

Each molecule below has a reported value. Please supply its Plant response rating, Bedstraw.
1. Cc1cnc(-c2ccc(C(F)(F)F)cc2)nc1Cc1cccc(OC(F)(F)F)c1
2. Cc1cnc(-c2ccc(C(F)(F)F)cc2)nc1Cn1cnc(C(F)(F)F)c1
3. Cc1cnc(-n2ccc(C(F)(F)F)n2)nc1Cc1cccc(C(F)(F)F)c1
4. Cc1cnc(-c2ccc(Cl)cc2)nc1Cc1cccc(C(F)(F)F)c1
5. Cc1cnc(-c2ccc(C(F)(F)F)cc2)nc1Cn1cc(I)cn1
6. CCc1cnc(-c2ccc(C(F)(F)F)cc2)nc1Cc1cccc(OC(F)(F)F)c1
7. Cc1cnc(-c2ccc(C(F)(F)F)cc2)nc1Cn1nc(C(F)(F)F)cc1C

Resp:
1. 9
2. 10
3. 9
4. 8
5. 10
6. 10
7. 10

Each molecule below has a reported value. Please supply its Plant response rating, Bedstraw.
1. Cc1cnc(-c2ccc(C(F)(F)F)cc2)nc1C(=O)c1cccc(OC(F)(F)F)c1
2. Cc1cnc(-n2cnc(C(F)(F)F)n2)nc1C(=O)c1cccc(OC(F)(F)F)c1

Resp:
1: 9; 2: 7

---

Tested on: Spanishneedles (Bidens bipinnata)
Assay: Test E pre-/postemergence/post directed
Type: in vivo
Conditions: POSTEMERGENCE, Rate 250 g/ha
Source text: […] Test chemicals were formulated in a non-phytotoxic solvent mixture which included a surfactant and applied preemergence to the soil surface, postemergence to the plants or as a post directed spray to plants and soil at the base of the target species. Untreated control plants and treated plants were placed in the greenhouse and visually evaluated for injury 13 to 21 days after herbicide application. […]
Field: Plant response rating, Spanishneedles. Provide a value for each of the molecules that follow.
Give bare numbers.

line-notation	measured-endpoint	recorded-result
Cc1cnc(-n2cnc(C(F)(F)F)c2)nc1Cc1cccc(C(F)(F)F)c1	Plant response rating, Spanishneedles	10

Each molecule below has a reported value. Please supply its Plant response rating, Spanishneedles.
1. COc1cnc(-c2ccc(C(F)(F)F)cc2)nc1Cc1cccc(C(F)(F)F)c1
2. Cc1cnc(-n2ccc(C(F)(F)F)n2)nc1Cn1ccc(C(F)(F)F)n1
3. Cc1cnc(-c2ccc(C(F)(F)F)cc2)nc1Cc1cccc(OC(F)(F)F)c1

Resp:
1: 10; 2: 60; 3: 10

---

Tested on: tall mallow (Malva sylvestris)
Experiment: Test E pre-/postemergence/post directed
Format: in vivo
Conditions: PREEMERGENCE, Rate 125 g/ha
Source text: […] Test chemicals were formulated in a non-phytotoxic solvent mixture which included a surfactant and applied preemergence to the soil surface, postemergence to the plants or as a post directed spray to plants and soil at the base of the target species. Untreated control plants and treated plants were placed in the greenhouse and visually evaluated for injury 13 to 21 days after herbicide application. […]
measured-endpoint: Plant response rating, Tall Mallow
Give bare numbers.

molecule	measured-endpoint	recorded-result
Cc1cnc(-n2ccc(C(F)(F)F)n2)nc1Cc1cccc(OC(F)(F)F)c1 [Compound 42]	Plant response rating, Tall Mallow	98

Each molecule below has a reported value. Please supply its Plant response rating, Tall Mallow.
1. Cc1cnc(-n2cnc(C(F)(F)F)n2)nc1C(=O)c1cccc(C(F)(F)F)c1 [Compound 67]
2. Cc1cnc(-n2ccc(C(F)(F)F)n2)nc1Cc1cccc(C(F)(F)F)c1 [Example 2]
3. Cc1cnc(-n2ccc(C(F)(F)F)n2)nc1Cn1ccc(C(F)(F)F)n1 [Compound 52]

Resp:
1: 90; 2: 100; 3: 100
